// reported EC50 per item
Species on record: Canis familiaris
assayNotes: Effective dose required to induce constriction of dog saphenous vein segments
Type: functional
reportedConditions: Canis lupus familiaris, read-out: ED50 (the source's name)
Please state the figure in nM; there is no need to write the unit.

Enquiry: // lookup EC50 for CC(C)/N=C(\N)NNCCCNCC1CCc2ccccc2O1 (configuration not stated)
Return: 4.8

Enquiry: Do the same for CCc1ccc2c(c1)OC(CNCCCNC1=NCCCN1)CC2 (configuration not stated) please
Return: 1.93

Enquiry: Do the same for c1ccc2c(c1)CC[C@@H](CNCCCNC1=NCCCN1)O2 please
Return: 51.5

###

Organism: Sus scrofa
assayNotes: Ability to induce constriction of pig basilary artery.
Format: functional
reportedConditions: Sus scrofa; read-out: ED50 (the source's name)
measuredEndpoint: pEC50
Schema: pEC50 number; meaning minus log10 of the concentration expressed in molar units.

Enquiry: // lookup pEC50 for c1ccc2c(c1)CC[C@H](CNCCCNC1=NCCCN1)O2
Return: 7.64
